Experimental Target: human recombinant MC5R (CHO-K1/Ga15 stable cell line, GenScript) (human, UniProt P33032 1-325)
Sequence (P33032 whole entry): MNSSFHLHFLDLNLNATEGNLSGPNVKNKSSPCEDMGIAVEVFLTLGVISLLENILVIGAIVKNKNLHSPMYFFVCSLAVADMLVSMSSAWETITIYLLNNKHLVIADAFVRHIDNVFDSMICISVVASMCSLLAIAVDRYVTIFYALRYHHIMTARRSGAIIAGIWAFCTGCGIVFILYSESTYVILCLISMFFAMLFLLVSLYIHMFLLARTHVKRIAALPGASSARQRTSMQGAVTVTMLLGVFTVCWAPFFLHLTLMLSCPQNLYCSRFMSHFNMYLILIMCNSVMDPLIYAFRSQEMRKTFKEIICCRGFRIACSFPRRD
Assay Remarks: cell-based or functional assay
Positions of bridges follow the written chain, without caps; N, C: chain ends. Non-standard residues stand in square brackets, D forms with d. *: point of attachment. Benzoyl(3,5-(OH)2) = O=C(c1cc(O)cc(O)c1)*; NMeW = CN[C@@H](Cc1c[nH]c2ccccc12)C(=O)O; Lys(N3) = [N-]=[N+]=NCCCC[C@H](N)C(=O)O; Acetyl(4-pyridyl) = O=C(Cc1ccncc1)*; NMeH = CN[C@@H](Cc1c[nH]cn1)C(=O)O; NMeR = CN[C@@H](CCCNC(=N)N)C(=O)O; dPra = C#CC[C@@H](N)C(=O)O; Nle = CCCC[C@H](N)C(=O)O; Pra = C#CC[C@H](N)C(=O)O
Recorded Endpoint: MC5R IC50 (nM)

# example entries with known answers
INSERT INTO assay_data (binder, assay_result) VALUES
  ('Ac-[Nle][Lys(N3)]H[dF]R[NMeW][Pra]-NH2 (triazole 2-7) [KR-046]', 94.8),
  ('{Benzoyl(3,5-(OH)2)}-[Nle][Lys(N3)]H[dF]RW[Pra]K-NH2 (triazole 2-7; not fully specified; printed as HyBA-Nle-[Lys(N3)-His-DPhe-Arg-Trp-Pra]-Lys-NH2) [KR-053]', 120),
  ('Ac-[Nle][Lys(N3)]H[dF]RW[dPra]K-NH2 (triazole 2-7; not fully specified; printed as Ac-Nle-[Lys(N3)-His-DPhe-Arg-Trp-DPra]-Lys-NH2) [KR-070]', 376);

I: Ac-[Nle][Lys(N3)]H[dF][NMeR][NMeW][Pra]-NH2 (triazole 2-7) [KR-050]
II: {Acetyl(4-pyridyl)}-[Nle][Lys(N3)]H[dF]RW[Pra]-NH2 (triazole 2-7; not fully specified; printed as PyAA-Nle-[Lys(N3)-His-DPhe-Arg-Trp-Pra]-NH2) [KR-074]
III: Ac-[Nle][Lys(N3)][NMeH][dF]RW[Pra]-NH2 (triazole 2-7) [KR-043]
Query: Sort by MC5R IC50, descending. Put the labels in the order asked and list them.
Result: I, II, III
(I: 234 nM, II: 154 nM, III: 86 nM)
